# subject-of-test: DYRK1A (Homo sapiens, UniProt Q13627)
# method-summary: DYRK1A binding assay (DiscoverX KINOMEscan)
# condition-description: eleven serial three fold dilutions, highest concentration 60 μM
Give log10 Kd for every item shown.
Scale: log10; quantity: Kd; unit before log: nM

Incoming: Returns the measured log10 Kd for the input molecule. Input: O=c1[nH]c2ccc(-c3cnc(NCc4cccc5ccccc45)nc3)cc2[nH]1 [Compound 30d]
Outgoing: 2.96

Incoming: Could you share which log10 Kd value was measured for O=c1[nH]c2ccc(-c3cnc(NCc4cccnc4)nc3)cc2[nH]1 [Compound 30b] ?
Outgoing: 2.28

Incoming: Look at this molecule and give its reported log10 Kd. NC(=O)c1cccc(CNc2ncc(-c3ccc4[nH]c(=O)[nH]c4c3)cn2)c1 [Compound 32a]
Outgoing: 2.11

Incoming: Query (molecule): Cn1c(=O)[nH]c2ccc(-c3cnc(NCc4ccc(F)cc4)nc3)cc21 [Compound 17d] ; field requested: log10 Kd
Outgoing: 1.95

Incoming: Reported log10 Kd for O=c1[nH]c2ccc(-c3cnc(NCc4ccccc4)cn3)cc2[nH]1 [Compound 18c] : what is it?
Outgoing: 2.23

Incoming: What log10 Kd value was documented for this molecule, Fc1ccc(CNc2ncc(-c3ccc4[nH]cnc4c3)cn2)cc1 [Compound 17j] ?
Outgoing: 3.36

Incoming: Which log10 Kd reading was recorded for the molecule O=c1[nH]c2ccc(-c3cnc(NCc4ccc(F)cc4)cn3)cc2[nH]1 [Compound 18d] ?
Outgoing: 2.41

Incoming: May I ask what log10 Kd has been recorded for O=c1[nH]c2ccc(-c3cnc(NCCc4ccccc4)nc3)cc2[nH]1 [Compound 29k] ?
Outgoing: 2.30

Incoming: Requested read-out: log10 Kd. Entry: O=c1[nH]c2ccc(-c3ccc(NCc4ccc(F)cc4)nn3)cc2[nH]1 [Compound 16a]
Outgoing: 3.85

Incoming: Can you look up the measured log10 Kd of O=c1[nH]c2ccc(-c3cnc(NCc4ccc(-c5ccccc5)cc4)nc3)cc2[nH]1 [Compound 29h] for me?
Outgoing: 3.15

Incoming: Quick check: log10 Kd of O=c1[nH]c2ccc(-c3cnc(NCc4ccc(Cl)cc4)nc3)cc2[nH]1 [Compound 29e] ?
Outgoing: 2.26

Incoming: # get_value(readout='log10 Kd', item= NC(=O)c1ccc(CNc2ncc(-c3ccc4[nH]c(=O)[nH]c4c3)cn2)cc1 [Compound 32b] )
Outgoing: 1.66

Incoming: Entry O=c1[nH]c2ccc(-c3cnc(NCc4ccc5ccccc5c4)nc3)cc2[nH]1 [Compound 30e] has what log10 Kd?
Outgoing: 3.85

Incoming: Bench note: what log10 Kd did O=c1[nH]c2ccc(-c3cnc(NCc4ccccc4F)nc3)cc2[nH]1 [Compound 29a] show?
Outgoing: 1.84

Incoming: Given the entry O=c1[nH]c2ccc(-c3cnc(NCc4cccc(Cl)c4)nc3)cc2[nH]1 [Compound 29d] , report its measured log10 Kd.
Outgoing: 2.45

Incoming: Which log10 Kd value is on record for O=c1[nH]c2ccc(-c3cnc(NCc4ccncc4)nc3)cc2[nH]1 [Compound 30c] ?
Outgoing: 2.11

Incoming: Entry N#Cc1cccc(CNc2ncc(-c3ccc4[nH]c(=O)[nH]c4c3)cn2)c1 [Compound 29f] has what log10 Kd?
Outgoing: 1.69

Incoming: Entry under review: O=c1[nH]c2ccc(-c3cnc(NCc4ccccc4Cl)nc3)cc2[nH]1 [Compound 29c] . Reported log10 Kd?
Outgoing: 2.40

Values from patent US20220064146A1
